Listing: Kd of selected binders
biological target: equine FcRn (large alpha subunit p51) / equine beta-2-microglobulin complex, biotinylated (equine) (UniProt P30441); assay: SPR (Biacore), pH 6
Give your result in nM as a bare value.

>>> data_value("equine IgG4 K311V (antibody, part only; not given: variable domains, not shown: another chain or arm of the molecule) constant: ASTTAPKVFPLASHSAATSGSTVALGCLVSSYFPEPVTVSWNSGALTSGVHTFPSVLQSSGLYSLSSMVTVPASSLKSQTYICNVAHPASSTKVDKKIVIKECNGGCPAECLQVGPSVFIFPPKPKDVLMISRTPTVTCVVVDVGHDFPDVQFNWYVDGVETHTATTEPKQEQFNSTYRVVSVLPIQHVDWLSGKEFKCKVNNKALPAPVERTISKPTGQPREPQVYVLAPHRDELSKNKVSVTCLVKDFYPTDIDIEWKSNGQPEPETKYSTTPAQLDSDGSYFLYSKLTVETNRWQQGTTFTCAVMHEALHNHYTEKSVSKSPGK")
22.4
>>> data_value("equine IgG4 M428R (antibody, part only; not given: variable domains, not shown: another chain or arm of the molecule) constant: ASTTAPKVFPLASHSAATSGSTVALGCLVSSYFPEPVTVSWNSGALTSGVHTFPSVLQSSGLYSLSSMVTVPASSLKSQTYICNVAHPASSTKVDKKIVIKECNGGCPAECLQVGPSVFIFPPKPKDVLMISRTPTVTCVVVDVGHDFPDVQFNWYVDGVETHTATTEPKQEQFNSTYRVVSVLPIQHKDWLSGKEFKCKVNNKALPAPVERTISKPTGQPREPQVYVLAPHRDELSKNKVSVTCLVKDFYPTDIDIEWKSNGQPEPETKYSTTPAQLDSDGSYFLYSKLTVETNRWQQGTTFTCAVRHEALHNHYTEKSVSKSPGK")
93.1
>>> data_value("equine IgG4 N434Q (antibody, part only; not given: variable domains, not shown: another chain or arm of the molecule) constant: ASTTAPKVFPLASHSAATSGSTVALGCLVSSYFPEPVTVSWNSGALTSGVHTFPSVLQSSGLYSLSSMVTVPASSLKSQTYICNVAHPASSTKVDKKIVIKECNGGCPAECLQVGPSVFIFPPKPKDVLMISRTPTVTCVVVDVGHDFPDVQFNWYVDGVETHTATTEPKQEQFNSTYRVVSVLPIQHKDWLSGKEFKCKVNNKALPAPVERTISKPTGQPREPQVYVLAPHRDELSKNKVSVTCLVKDFYPTDIDIEWKSNGQPEPETKYSTTPAQLDSDGSYFLYSKLTVETNRWQQGTTFTCAVMHEALHQHYTEKSVSKSPGK")
17.7
>>> data_value("equine IgG4 A426H (antibody, part only; not given: variable domains, not shown: another chain or arm of the molecule) constant: ASTTAPKVFPLASHSAATSGSTVALGCLVSSYFPEPVTVSWNSGALTSGVHTFPSVLQSSGLYSLSSMVTVPASSLKSQTYICNVAHPASSTKVDKKIVIKECNGGCPAECLQVGPSVFIFPPKPKDVLMISRTPTVTCVVVDVGHDFPDVQFNWYVDGVETHTATTEPKQEQFNSTYRVVSVLPIQHKDWLSGKEFKCKVNNKALPAPVERTISKPTGQPREPQVYVLAPHRDELSKNKVSVTCLVKDFYPTDIDIEWKSNGQPEPETKYSTTPAQLDSDGSYFLYSKLTVETNRWQQGTTFTCHVMHEALHNHYTEKSVSKSPGK")
17.8
>>> data_value("equine IgG4 D312L (antibody, part only; not given: variable domains, not shown: another chain or arm of the molecule) constant: ASTTAPKVFPLASHSAATSGSTVALGCLVSSYFPEPVTVSWNSGALTSGVHTFPSVLQSSGLYSLSSMVTVPASSLKSQTYICNVAHPASSTKVDKKIVIKECNGGCPAECLQVGPSVFIFPPKPKDVLMISRTPTVTCVVVDVGHDFPDVQFNWYVDGVETHTATTEPKQEQFNSTYRVVSVLPIQHKLWLSGKEFKCKVNNKALPAPVERTISKPTGQPREPQVYVLAPHRDELSKNKVSVTCLVKDFYPTDIDIEWKSNGQPEPETKYSTTPAQLDSDGSYFLYSKLTVETNRWQQGTTFTCAVMHEALHNHYTEKSVSKSPGK")
11.6
>>> data_value("equine IgG4 N434Y (antibody, part only; not given: variable domains, not shown: another chain or arm of the molecule) constant: ASTTAPKVFPLASHSAATSGSTVALGCLVSSYFPEPVTVSWNSGALTSGVHTFPSVLQSSGLYSLSSMVTVPASSLKSQTYICNVAHPASSTKVDKKIVIKECNGGCPAECLQVGPSVFIFPPKPKDVLMISRTPTVTCVVVDVGHDFPDVQFNWYVDGVETHTATTEPKQEQFNSTYRVVSVLPIQHKDWLSGKEFKCKVNNKALPAPVERTISKPTGQPREPQVYVLAPHRDELSKNKVSVTCLVKDFYPTDIDIEWKSNGQPEPETKYSTTPAQLDSDGSYFLYSKLTVETNRWQQGTTFTCAVMHEALHYHYTEKSVSKSPGK")
4.6

# input Determine from records and report Kd for equine IgG1 T286F (antibody, part only; not given: variable domains, not shown: another chain or arm of the molecule) constant: ASTTAPKVFALAPGCGTTSDSTVALGCLVSGYFPEPVKVSWNSGSLTSGVHTFPSVLQSSGFYSLSSMVTVPASTWTSETYICNVVHAASNFKVDKRIEPIPDNHQKVCDMSKCPKCPAPELLGGPSVFIFPPNPKDTLMITRTPEVTCVVVDVSQENPDVKFNWYMDGVEVRFATTRPKEEQFNSTYRVVSVLRIQHQDWLSGKEFKCKVNNQALPQPIERTITKTKGRSQEPQVYVLAPHPDELSKSKVSVTCLVKDFYPPEINIEWQSNGQPELETKYSTTQAQQDSDGSYFLYSKLSVDRNRWQQGTTFTCGVMHEALHNHYTQKNVSKNPGK
# output 18.5

# input Determine from records and report Kd for equine IgG1 Y436K (antibody, part only; not given: variable domains, not shown: another chain or arm of the molecule) constant: ASTTAPKVFALAPGCGTTSDSTVALGCLVSGYFPEPVKVSWNSGSLTSGVHTFPSVLQSSGFYSLSSMVTVPASTWTSETYICNVVHAASNFKVDKRIEPIPDNHQKVCDMSKCPKCPAPELLGGPSVFIFPPNPKDTLMITRTPEVTCVVVDVSQENPDVKFNWYMDGVEVRTATTRPKEEQFNSTYRVVSVLRIQHQDWLSGKEFKCKVNNQALPQPIERTITKTKGRSQEPQVYVLAPHPDELSKSKVSVTCLVKDFYPPEINIEWQSNGQPELETKYSTTQAQQDSDGSYFLYSKLSVDRNRWQQGTTFTCGVMHEALHNHKTQKNVSKNPGK
# output 18
